# Test system: Staphylococcus aureus
# Measurement description: Antimicrobial activity against methicillin-resistant Staphylococcus aureus ATCC 33592 assessed as bacterial growth inhibitions by CLSI protocol based microdilution method
# Format: functional
Measure name: MIC

Solved entries:
substance_smiles=O=C(O)c1ccc(-n2cc(CNc3cc(F)c(F)c(F)c3)c(-c3ccc(C(F)(F)F)cc3)n2)cc1 obs_value="0.78 µg/mL"
substance_smiles=O=C(O)c1ccc(-n2cc(CNc3ccc(F)c(F)c3F)c(-c3ccc(C(F)(F)F)cc3)n2)cc1 obs_value="1.56 µg/mL"
substance_smiles=O=C(O)c1ccc(-n2cc(CNc3cc(F)cc(C(F)(F)F)c3)c(-c3ccc(C(F)(F)F)cc3)n2)cc1 obs_value="0.78 µg/mL"
substance_smiles=O=C(O)c1ccc(-n2cc(CNc3cc(F)c(C(F)(F)F)c(F)c3)c(-c3ccc(C(F)(F)F)cc3)n2)cc1 obs_value="1.56 µg/mL"

Bench note, Staphylococcus aureus: entry O=C(O)c1ccc(-n2cc(CNc3cccc(Br)c3)c(-c3ccc(C(F)(F)F)cc3)n2)cc1 , its MIC = 0.78 µg/mL

Bench note, Staphylococcus aureus: entry O=C(O)c1ccc(-n2cc(CNc3ccccc3)c(-c3ccc(C(F)(F)F)cc3)n2)cc1 , its MIC = 6.25 µg/mL

Bench note, Staphylococcus aureus: entry O=C(O)c1ccc(-n2cc(CNc3ccc(Cl)c(Cl)c3)c(-c3ccc(C(F)(F)F)cc3)n2)cc1 , its MIC = 0.78 µg/mL

###

# MIC listing for each entry below
# Tested on: Staphylococcus aureus
# Measurement description: Antimicrobial activity against methicillin-susceptible Staphylococcus aureus ATCC 25923 assessed as bacterial growth inhibitions by CLSI protocol based microdilution method
# Type: functional
Respond with the bare value in µg/mL.

Solved entries:
substance_smiles=O=C(O)c1ccc(-n2cc(CNc3cc(Cl)c(O)c(Cl)c3)c(-c3ccc(C(F)(F)F)cc3)n2)cc1 measure_name=MIC obs_value=50
substance_smiles=O=C(O)c1ccc(-n2cc(CNc3cc(F)cc(C(F)(F)F)c3)c(-c3ccc(C(F)(F)F)cc3)n2)cc1 measure_name=MIC obs_value=0.39

Turning now to a further record.
Bench note, Staphylococcus aureus: entry O=C(O)c1ccc(-n2cc(CNc3ccc(F)c(Cl)c3)c(-c3ccc(C(F)(F)F)cc3)n2)cc1 , its MIC = 0.78

###

# Tested on: Staphylococcus epidermidis
# Measurement description: Antimicrobial activity against methicillin-resistant Staphylococcus epidermidis ATCC 700296 assessed as bacterial growth inhibitions by CLSI protocol based microdilution method
# Type: functional
# MIC listing for each entry below
Respond with the bare value in µg/mL.

substance_smiles=O=C(O)c1ccc(-n2cc(CNc3ccccc3)c(-c3ccc(C(F)(F)F)cc3)n2)cc1 measure_name=MIC units_text=µg/mL obs_value=12.5

Query O=C(O)c1ccc(-n2cc(CNc3ccc(F)c(F)c3)c(-c3ccc(C(F)(F)F)cc3)n2)cc1 yields MIC of 6.25

Query O=C(O)c1ccc(-n2cc(CNc3cc(Br)cc(C(F)(F)F)c3)c(-c3ccc(C(F)(F)F)cc3)n2)cc1 yields MIC of 1.56

Query O=C(O)c1ccc(-n2cc(CNc3cc(Cl)c(O)c(Cl)c3)c(-c3ccc(C(F)(F)F)cc3)n2)cc1 yields MIC of 50

###

# Measurement description: Selectivity index, ratio of IC50 for cytotoxicity against human HEK-293T cells to MIC of antimicrobial activity against methicillin-susceptible Staphylococcus aureus ATCC 25923
# Type: toxicity, cell-based
# Run conditions: read-out: Selectivity Index
Measure name: selectivity ratio

Query O=C(O)c1ccc(-n2cc(CNc3cc(F)cc(C(F)(F)F)c3)c(-c3ccc(C(F)(F)F)cc3)n2)cc1 yields selectivity ratio of 13
